- System: VEGF165 (recombinant human vascular endothelial growth factor, 165 aa form) (Homo sapiens), P15692-4
- Sequence: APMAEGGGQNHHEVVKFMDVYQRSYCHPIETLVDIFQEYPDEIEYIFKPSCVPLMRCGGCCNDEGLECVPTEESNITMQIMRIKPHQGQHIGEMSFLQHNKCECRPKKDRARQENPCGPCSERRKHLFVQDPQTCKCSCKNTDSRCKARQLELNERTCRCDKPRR
- Test Details: filter
- Condition Set: clone listed in families 1 and 2
pKd: −log10 of the molar value.
Property Name: pKd

CTACCTACGATCTGACTAGCACGCAAGAGAGGTCNCCGAATGGCAGTCTCAGCCGCTAACAGCTTACTCTCATGTAGTTCCT [ssDNA b91] : 8.41

* * *

- Test system: VEGF165 (recombinant human vascular endothelial growth factor, 165 aa form) (Homo sapiens), P15692-4
- Sequence: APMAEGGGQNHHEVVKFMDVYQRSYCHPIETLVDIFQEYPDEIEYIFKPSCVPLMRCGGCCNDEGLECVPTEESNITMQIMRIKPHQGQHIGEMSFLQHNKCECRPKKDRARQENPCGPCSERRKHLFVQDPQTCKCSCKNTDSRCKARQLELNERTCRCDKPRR
- Test Details: filter
pKd: −log10 of the molar value.
Please use t whenever pKd is not below 9, and f whenever it is.

TGGACTAGAGGNCAGCAAACGATCCTTGGTTCGCGTCC [32t] : f
CTACCTACGATCTGACTAGCTGCNNGCGGGCGGTTCTCCGGATGGGACCATAAGGCTTTAGCTTAGCTTACTCTCATGTAGTTCCT [ssDNA b54] : f
CTACCTACGATCTGACTAGCACAAGGGGTCCTGNNGAATGGGGGAATACGCTAGCCGAAGCTTACTCTCATGTAGTTCCT [ssDNA b55] : f
ATCCGCCTGATTAGCGATACTGGTGGACTAGAGGNCAGCAAACGATCCTTGGTTCGCGTCCACTTGAGCAAAATCACCTGCAGGGG [ssDNA 32] : f
ATCCGCCTGATTAGCGATACTGGTGTGAACCAGACCTACNGGAACGTTATCGCTTGTGACTTGAGCAAAATCACCTGCAGGGG [ssDNA 44] : t

* * *

- Test system: VEGF165 (recombinant human vascular endothelial growth factor, 165 aa form) (Homo sapiens), P15692-4
- Sequence: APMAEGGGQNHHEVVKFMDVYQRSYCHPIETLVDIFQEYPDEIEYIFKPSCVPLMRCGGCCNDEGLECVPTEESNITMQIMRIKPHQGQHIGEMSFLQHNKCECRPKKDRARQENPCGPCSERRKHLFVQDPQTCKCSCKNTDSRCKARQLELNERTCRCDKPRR
- Test Details: filter
- Condition Set: 2'-NH2 pyrimidines; random pool
pKd: −log10 of the molar value.
Each entry below carries its recorded pKd.
Property Name: pKd

GGGAGGACGAUGCGGNNNNNNNNNNNNNNNNNNNNNNNNNNNNNNNNNNNNNNNNNNNNNNNNNNCAGACGACUCGCCCGA [Random RNA B (50N7)] : 6.62
GGGAGACAAGAAUAACGCUCAANNNNNNNNNNNNNNNNNNNNNNNNNNNNNNUUCGACAGGAGGCUCACAACAGGC [Random RNA A (30N8)] : 7.08
